Data provenance: PubChem BioAssay (NCI)

tested on: NCI/ADR-RES ovarian; assay: NCI tumour cell line growth inhibition, 48 h
The entries below are paired with their reported GI50.
READOUT: GI50

>>> obs_value("O=C1c2ccccc2-c2c1c1c(O)cccc1n2Cc1ccccc1")
"6.5 µM"
>>> obs_value("O=C1C[C@@H]2OCC=C3C[N+]4([O-])CC[C@]56c7ccccc7N1[C@H]5[C@H]2[C@H]3C[C@@H]64 (stereo partly drawn)")
"> 100 µM"
>>> obs_value("COc1cc(/C=C/C(=O)c2nc3cc(F)ccc3nc2C)cc(OC)c1OC")
"14.2 µM"

----------
tested on: NCI-H23 lung; test: NCI tumour cell line growth inhibition, 48 h
The entries below are paired with their reported TGI.
READOUT: TGI (µM)

>>> obs_value("CN(C)CCCC1(c2ccc(F)cc2)OCc2cc(-c3csc4ccccc34)ccc21 (stereo not given)")
3.02
>>> obs_value("O=S(=O)(Nc1ccccc1)c1ccc(C2CC3(Cl)C(Cl)=C(Cl)C2(Cl)C3(Cl)Cl)cc1 (stereo not given)")
7.35
>>> obs_value("CC1(c2ccc(Cl)cc2)C=C(c2ccc(Cl)cc2)C(C#N)=C(C(C#N)C#N)N1 (stereo not given)")
32.3
>>> obs_value("COc1ccccc1CNCCCN1C(=O)c2ccc3c4c(ccc(c24)C1=O)C(=O)N(CCCNCc1ccccc1OC)C3=O")
0.443
